Tested on: Staphylococcus aureus
Assay: Antibacterial activity against Staphylococcus aureus ATCC 6538P after 24 to 48 hrs
Type: functional
What MIC was measured for each of the following?
Your answer should be a plain number; it is taken to be in µg/mL.

Inquiry: Query (molecule): O=C(N[C@H](CO)[C@H](O)c1ccc([N+](=O)[O-])cc1)C(Cl)Cl [CHLORAMPHENICOL] ; field requested: MIC
Reply text: 8

Inquiry: Consider next the molecule CCOC(=O)C1(C)C(C)NC(=O)N(C)C1c1ccccc1 (stereo not drawn) in the same way.
Reply text: 125

Inquiry: Consider next the molecule CCOC(=O)C1(C)C(C)NC(=S)N(C)C1c1ccc(Cl)cc1 (stereo not drawn) in the same way.
Reply text: 16

====

Tested on: Salmonella enterica subsp. enterica serovar Abony
Assay: Antibacterial activity against Salmonella abony NCTC 6017 assessed as growth inhibition at 100 ug/ml after 8 to 24 hrs by agar well diffusion method
Assay type: functional
Settings: read-out: DIZ
Lab note: anything with zone of inhibition at 100 µg/mL at or over 20 mm counts as Satisfied; the rest go in Not satisfied.

Inquiry: Entry CCOC(=O)C1(C)C(C)NC(=S)N(C)C1c1ccc(Cl)cc1 (configuration not stated) : is its zone of inhibition at 100 µg/mL no less than 20 mm?
Reply text: Satisfied

Inquiry: Consider next the compound CCOC(=O)C1(C)C(C)NC(=O)N(C)C1c1ccccc1[N+](=O)[O-] (configuration not stated) in the same way.
Reply text: Satisfied

Inquiry: Consider next the compound CCOC(=O)C1(C)C(C)NC(=S)N(C)C1c1ccc(OC)cc1 (configuration not stated) in the same way.
Reply text: Not satisfied

Inquiry: Consider next the compound CCOC(=O)C1(C)C(C)NC(=S)N(C)C1c1ccccc1 (configuration not stated) in the same way.
Reply text: Not satisfied

Inquiry: Consider next the compound `O=C(N[C@H](CO)[C@H](O)c1ccc([N+](=O)[O-])cc1)C(Cl)Cl` in the same way.
Reply text: Satisfied

Inquiry: Consider next the compound CCOC(=O)C1(C)C(C)NC(=O)N(C)C1c1ccc(O)cc1 (configuration not stated) in the same way.
Reply text: Not satisfied

Inquiry: Consider next the compound CCOC(=O)C1(C)C(C)NC(=O)N(C)C1c1ccc(Cl)cc1 (configuration not stated) in the same way.
Reply text: Not satisfied

Inquiry: Consider next the compound CCOC(=O)C1(C)C(C)NC(=O)N(C)C1c1ccccc1 (configuration not stated) in the same way.
Reply text: Not satisfied

Inquiry: Consider next the compound CCOC(=O)C1(C)C(C)NC(=O)N(C)C1c1ccc(OC)cc1 (configuration not stated) in the same way.
Reply text: Not satisfied

Inquiry: Consider next the compound CCOC(=O)C1(C)C(C)NC(=O)N(C)C1c1ccc(N(C)C)cc1 (configuration not stated) in the same way.
Reply text: Satisfied

Inquiry: Consider next the compound `CN[C@@H]1[C@H](O[C@H]2[C@H](O[C@H]3[C@H](O)[C@@H](O)[C@H](N=C(N)N)[C@@H](O)[C@@H]3N=C(N)N)O[C@@H](C)[C@]2(O)C=O)O[C@@H](CO)[C@H](O)[C@H]1O` in the same way.
Reply text: Not satisfied

====

Tested on: Escherichia coli
Assay: Antibacterial activity against Escherichia coli ATCC 8739 assessed as growth inhibition at 25 ug/ml after 8 to 24 hrs by agar well diffusion method
Type: functional
Conditions: read-out: DIZ
attribute-measured: zone of inhibition at 25 µg/mL (mm)
Your answer should be a plain number; it is taken to be in mm.

Inquiry: Query (molecule): CCOC(=O)C1(C)C(C)NC(=O)N(C)C1c1ccccc1 (stereo unspecified) ; field requested: zone of inhibition at 25 µg/mL
Reply text: 12

Inquiry: Consider next the molecule CCOC(=O)C1(C)C(C)NC(=S)N(C)C1c1ccc(O)cc1 (stereo unspecified) in the same way.
Reply text: 17

Inquiry: Consider next the molecule CCOC(=O)C1(C)C(C)NC(=O)N(C)C1c1ccc(Cl)cc1 (stereo unspecified) in the same way.
Reply text: 10

Inquiry: Consider next the molecule CCOC(=O)C1(C)C(C)NC(=O)N(C)C1c1ccccc1[N+](=O)[O-] (stereo unspecified) in the same way.
Reply text: 13

Inquiry: Consider next the molecule CCOC(=O)C1(C)C(C)NC(=S)N(C)C1c1ccc(Cl)cc1 (stereo unspecified) in the same way.
Reply text: 20

Inquiry: Consider next the molecule CCOC(=O)C1(C)C(C)NC(=S)N(C)C1c1ccc(OC)cc1 (stereo unspecified) in the same way.
Reply text: 15
